Exercise: for every item that follows, state its recorded Activity.
System: microRNA 122
Test: Inhibition of miR-122 in human Huh-7 cells expressing renilla luciferase gene assessed as relative luciferase unit after 48 hrs by dual luciferase assay relative to control
Assay type: cell-based
Parameters: concentration or dose not given beside the values
Give the number; % is assumed, so skip it.

Query: For the compound "COc1cc(C)c(C(C)C)cc1S(=O)(=O)N(C)c1ccccc1C" , what Activity is on record?
Result: 104

Query: For the compound "COc1cc(C)c(C(C)C)cc1S(=O)(=O)n1ccc(C)c1" , what Activity is on record?
Result: 57

Query: For the compound "COc1cc(C)c(C(C)C)cc1S(=O)(=O)N(C)c1cccc(C)n1" , what Activity is on record?
Result: 107

Query: For the compound "COc1cc(C)c(C(C)C)cc1S(=O)(=O)n1cnc(-c2ccccc2)c1" , what Activity is on record?
Result: 35

Query: For the compound "COc1cc(C)c(C(C)C)cc1S(=O)(=O)N(C)c1cccc(C)c1C" , what Activity is on record?
Result: 80

Query: For the compound "COc1cc(C)c(C(C)C)cc1S(=O)(=O)n1cnc(Cl)c1Cl" , what Activity is on record?
Result: 4

Query: For the compound "COc1cc(C)c(C(C)C)cc1S(=O)(=O)N(C)c1ncccc1C" , what Activity is on record?
Result: 64

Query: For the compound "COc1cc(C)c(C(C)C)cc1S(=O)(=O)Nc1ncccc1C" , what Activity is on record?
Result: 135

Query: For the compound "COc1cc(C)c(C(C)C)cc1S(=O)(=O)n1cnc(C)c1" , what Activity is on record?
Result: 100

Query: For the compound "COc1cc(C)c(C(C)C)cc1S(=O)(=O)Nc1ccccc1C" , what Activity is on record?
Result: 32

Query: For the compound "COc1cc(C)c(C(C)C)cc1S(=O)(=O)n1ccc(C)n1" , what Activity is on record?
Result: 44

Query: For the compound "COc1cc(C)c(C(C)C)cc1S(=O)(=O)N(C)c1cccc(C)c1" , what Activity is on record?
Result: 122

Query: For the compound "COc1cc(C)c(C(C)C)cc1S(=O)(=O)Nc1cccc(C)n1" , what Activity is on record?
Result: 89

Query: For the compound "COc1cc(C)c(C(C)C)cc1S(=O)(=O)n1cc(C)cn1" , what Activity is on record?
Result: 32

Query: For the compound "C#CCOc1cc(C)c(C(C)C)cc1S(=O)(=O)n1cnc(C)c1" , what Activity is on record?
Result: 50

Query: For the compound "CCNS(=O)(=O)c1cc(C(C)C)c(C)cc1OC" , what Activity is on record?
Result: 42

Query: For the compound "COc1cc(C)c(C(C)C)cc1S(=O)(=O)n1cnc([N+](=O)[O-])c1" , what Activity is on record?
Result: 61.1

Query: For the compound "COc1cc(C)c(C(C)C)cc1S(=O)(=O)Nc1ccccc1" , what Activity is on record?
Result: 47

Query: For the compound "COc1cc(C)c(C(C)C)cc1S(=O)(=O)N(C)C" , what Activity is on record?
Result: 42

These measurements were taken from ChEMBL document CHEMBL5150059.
